Some compounds, each annotated with its measured pIC50.
- Target Of Assay: Human immunodeficiency virus type 1 reverse transcriptase (Human immunodeficiency virus 1, UniProt Q72547)
- Run Description: Inhibition of HIV-1 Reverse transcriptase using poly-(ra)-oligo(dt) as the template primer.
- Condition Label: read-out: IC50
pIC50: −log10 of the molar value.
Readout Kind: pIC50

Smiles: COC(=O)CC=C(c1cc(Cl)c(OC)c(C(=O)OC)c1)c1cc(Cl)c(OC)c(C(=O)OC)c1
Modifier: <
Measured: 4.00
//
Smiles: COC(=O)c1cc(C(=CCCCCN=[N+]=[N-])c2cc(Cl)c(OC)c(C(=O)OC)c2)cc(Cl)c1OC
Modifier: =
Measured: 6.10
//
Smiles: COC(=O)c1cc(C(=CCC2OCCO2)c2cc(Cl)c(OC)c(C(=O)OC)c2)cc(Cl)c1OC
Modifier: =
Measured: 4.69
//
Smiles: COC(=O)CCC=C(c1cc(Cl)c(OC)c(C(=O)OC)c1)c1cc(Cl)c(OC)c(C(=O)OC)c1
Modifier: <
Measured: 4.00
//
Smiles: CCC1(CCCC=C(c2cc(Cl)c(OC)c(CO)c2)c2cc(Cl)c(OC)c(CO)c2)OCCO1
Modifier: =
Measured: 4.50
//
Smiles: CCNC(=O)OCCCCC=C(c1cc(Cl)c(OC)c(C(=O)OC)c1)c1cc(Cl)c(OC)c(C(=O)OC)c1
Modifier: =
Measured: 5.92
//
Smiles: COC(=O)CCCC=C(c1cc(Br)c(OC)c(C(=O)OC)c1)c1cc(Br)c(OC)c(C(=O)OC)c1
Modifier: =
Measured: 6.00
//
Smiles: COC(=O)c1cc(C(=CCCCC=O)c2cc(Cl)c(OC)c(C(=O)OC)c2)cc(Cl)c1OC
Modifier: =
Measured: 5.38
//
Smiles: COC(=O)CCCCC=C(c1cc(Cl)c(OC)c(C(=O)OC)c1)c1cc(Cl)c(OC)c(C(=O)OC)c1
Modifier: =
Measured: 5.47
//
Smiles: COC(=O)c1cc(C(=CCCCCBr)c2cc(Cl)c(OC)c(C(=O)OC)c2)cc(Cl)c1OC
Modifier: =
Measured: 5.72

----------
- Tested on: CEM-SS
- Run Description: Inhibition of cytopathic effect of HIV-1 RT containing the specified mutation V108I in CEM-SS cells.
- Format: functional, cell-based, Homo sapiens

Smiles: COC(=O)CCCC=C(c1cc(Br)c(OC)c(C(=O)OC)c1)c1cc(Br)c(OC)c(C(=O)OC)c1
Target Of Assay: CEM-SS
EC50 [nM]: 670

----------
- Target Of Assay: Human immunodeficiency virus type 1 reverse transcriptase (Human immunodeficiency virus 1)
- Run Description: Inhibition of HIV-1 Reverse transcriptase using poly-(rc)-oligo(dg) as the template primer.
Please respond with Condition met when measured IC50 is strictly beneath 2 µM, and with Condition not met in all other cases.

Smiles: COC(=O)CCCC=C(c1cc(Br)c(OC)c(C(=O)OC)c1)c1cc(Br)c(OC)c(C(=O)OC)c1
Label Value: Condition met
//
Smiles: COC(=O)CC=C(c1cc(Cl)c(OC)c(C(=O)OC)c1)c1cc(Cl)c(OC)c(C(=O)OC)c1
Label Value: Condition not met
//
Smiles: COC(=O)CCCCC(c1cc(Cl)c(OC)c(C(=O)OC)c1)c1cc(Cl)c(OC)c(C(=O)OC)c1
Label Value: Condition not met
//
Smiles: CCC1(CCCC=C(c2cc(Cl)c(OC)c(CO)c2)c2cc(Cl)c(OC)c(CO)c2)OCCO1
Label Value: Condition not met
//
Smiles: CCC1(CCC/C=C(\c2cc(Cl)c(OC)c(C=O)c2)c2cc(Cl)c(OC)c(CO)c2)OCCO1
Label Value: Condition not met
//
Smiles: COC(=O)c1cc(C(=CCCCCBr)c2cc(Cl)c(OC)c(C(=O)OC)c2)cc(Cl)c1OC
Label Value: Condition not met

----------
- System: CCRF-CEM
- Run Description: Concentration inhibiting 50% of mock-infected CEM cells.
- Format: functional
- Condition Label: Homo sapiens
Some compounds, each annotated with its measured CC50.
Readout Kind: CC50 (µM)

Smiles: COC(=O)CCCCC(c1cc(Cl)c(OC)c(C(=O)OC)c1)c1cc(Cl)c(OC)c(C(=O)OC)c1
Endpoint Unit: µM
Modifier: =
Measured: 21.3

Smiles: COC(=O)c1cc(C(=CCCCCCl)c2cc(Cl)c(OC)c(C(=O)OC)c2)cc(Cl)c1OC
Endpoint Unit: µM
Modifier: >
Measured: 316

Smiles: CCC(=O)CCCC=C(c1cc(Cl)c(OC)c(C=O)c1)c1cc(Cl)c(OC)c(C=O)c1
Endpoint Unit: µM
Modifier: =
Measured: 1.13

----------
- Tested on: CCRF-CEM
- Run Description: Concentration inhibiting 50% of mock-infected CEM cells.
- Type: functional
- Condition Label: Homo sapiens
Some compounds, each annotated with its measured CC50.
Readout Kind: CC50

Smiles: CCC(=O)CCCC=C(c1cc(Cl)c(OC)c(CO)c1)c1cc(Cl)c(OC)c(CO)c1
Measured: 14.2 µM
--
Smiles: CCC1(CCCC=C(c2cc(Cl)c(OC)c(C(=O)OC)c2)c2cc(Cl)c(OC)c(C(=O)OC)c2)OCCO1
Measured: 19.9 µM
--
Smiles: COC(=O)CC=C(c1cc(Cl)c(OC)c(C(=O)OC)c1)c1cc(Cl)c(OC)c(C(=O)OC)c1
Measured: 13.3 µM
--
Smiles: COC(=O)CCCC=C(c1cc(Br)c(OC)c(C(=O)OC)c1)c1cc(Br)c(OC)c(C(=O)OC)c1
Measured: 13 µM
--
Smiles: COC(=O)CCCC=C(c1cc(F)c(OC)c(C(=O)OC)c1)c1cc(F)c(OC)c(C(=O)OC)c1
Measured: 68.3 µM
--
Smiles: COC(=O)c1cc(C(=CCCc2ccccc2)c2cc(Br)c(OC)c(C(=O)OC)c2)cc(Br)c1OC
Measured: 31.5 µM
--
Smiles: CCNC(=O)OCCCCC=C(c1cc(Cl)c(OC)c(C(=O)OC)c1)c1cc(Cl)c(OC)c(C(=O)OC)c1
Measured: 8.4 µM
--
Smiles: COC(=O)c1cc(C(=CCC2OCCO2)c2cc(Cl)c(OC)c(C(=O)OC)c2)cc(Cl)c1OC
Measured: 26 µM
--
Smiles: COC(=O)CCCC=C(c1cc(Cl)c(OC)c(C(=O)OC)c1)c1cc(Cl)c(OC)c(C(=O)OC)c1
Measured: 31.6 µM
--
Smiles: COC(=O)CCC=C(c1cc(Cl)c(OC)c(C(=O)OC)c1)c1cc(Cl)c(OC)c(C(=O)OC)c1
Measured: 29.4 µM
--
Smiles: COC(=O)c1cc(C(=CCCCCN=[N+]=[N-])c2cc(Cl)c(OC)c(C(=O)OC)c2)cc(Cl)c1OC
Measured: 176 µM
--
Smiles: CCC1(CCCC=C(c2cc(Cl)c(OC)c(CO)c2)c2cc(Cl)c(OC)c(CO)c2)OCCO1
Measured: 16.9 µM
--
Smiles: COC(=O)c1cc(C(=CCCCCBr)c2cc(Cl)c(OC)c(C(=O)OC)c2)cc(Cl)c1OC
Measured: 98.7 µM
--
Smiles: CCCCCC=C(c1cc(F)c(OC)c(C(=O)OC)c1)c1cc(F)c(OC)c(C(=O)OC)c1
Measured: 13.4 µM
--
Smiles: CCC(=O)CCCC=C(c1cc(Cl)c(OC)c(C(=O)OC)c1)c1cc(Cl)c(OC)c(C(=O)OC)c1
Measured: 24.6 µM
--
Smiles: COC(=O)CCCCC=C(c1cc(Cl)c(OC)c(C(=O)OC)c1)c1cc(Cl)c(OC)c(C(=O)OC)c1
Measured: 152 µM
--
Smiles: CCC1(CCC/C=C(\c2cc(Cl)c(OC)c(C=O)c2)c2cc(Cl)c(OC)c(CO)c2)OCCO1
Measured: 5.8 µM
--
Smiles: COC(=O)c1cc(C(=CCCCC=O)c2cc(Cl)c(OC)c(C(=O)OC)c2)cc(Cl)c1OC
Measured: 9.6 µM

----------
- Run Description: Therapeutic index was determined for the compound as CC50/EC50
- Condition Label: read-out: TI

Smiles: CCC(=O)CCCC=C(c1cc(Cl)c(OC)c(C(=O)OC)c1)c1cc(Cl)c(OC)c(C(=O)OC)c1
selectivity ratio: 8.8

Smiles: COC(=O)CCCC=C(c1cc(Br)c(OC)c(C(=O)OC)c1)c1cc(Br)c(OC)c(C(=O)OC)c1
selectivity ratio: 10000

Smiles: COC(=O)CCC=C(c1cc(Cl)c(OC)c(C(=O)OC)c1)c1cc(Cl)c(OC)c(C(=O)OC)c1
selectivity ratio: 6.1

Smiles: COC(=O)CCCC=C(c1cc(F)c(OC)c(C(=O)OC)c1)c1cc(F)c(OC)c(C(=O)OC)c1
selectivity ratio: 35.9

Smiles: COC(=O)CCCCC=C(c1cc(Cl)c(OC)c(C(=O)OC)c1)c1cc(Cl)c(OC)c(C(=O)OC)c1
selectivity ratio: 101

Smiles: COC(=O)c1cc(C(=CCC2OCCO2)c2cc(Cl)c(OC)c(C(=O)OC)c2)cc(Cl)c1OC
selectivity ratio: 4
